Biological target: VHL30 (Homo sapiens, UniProt P40337)
Sequence (P40337 whole entry): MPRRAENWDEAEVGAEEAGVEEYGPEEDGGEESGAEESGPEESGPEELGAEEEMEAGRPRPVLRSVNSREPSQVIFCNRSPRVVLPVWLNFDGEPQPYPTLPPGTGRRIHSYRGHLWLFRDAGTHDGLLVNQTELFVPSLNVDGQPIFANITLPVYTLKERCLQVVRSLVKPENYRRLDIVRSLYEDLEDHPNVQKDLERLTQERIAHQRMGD
Assay: Immunoblotting (western blot) quantification of VHL30 levels in MM.1S cells
Details: MM1.S, 16 h, read-out: %remaining protein VHL30, MM.1S cells, 16 h treatment at 0.1 μM, normalized to loading control and DMSO
Readout name: remaining activity at 0.1 µM (%)

1) CN[C@H](C)C(=O)N[C@H](C(=O)N1C[C@@H](Oc2cccc(OCCCCC(=O)N[C@H](C(=O)N3C[C@H](O)C[C@H]3C(=O)N[C@@H](C)c3ccc(-c4scnc4C)cc3)C(C)(C)C)c2)C[C@H]1C(=O)N[C@@H]1CCCc2ccccc21)C1CCCCC1 [PROTAC 10a] ... 41
2) CN[C@@H](C)C(=O)N[C@H](C(=O)N1C[C@@H](Oc2cccc(OCCCCCCCC(=O)N[C@H](C(=O)N3C[C@H](O)C[C@H]3C(=O)NCc3ccc(-c4scnc4C)cc3)C(C)(C)C)c2)C[C@H]1C(=O)N[C@@H]1CCCc2ccccc21)C1CCCCC1 ... 28

1: Cc1ncsc1-c1ccc([C@H](C)NC(=O)[C@@H]2C[C@@H](O)CN2C(=O)[C@@H](NC(=O)CCCCOc2cccc(O[C@H]3C[C@@H](C(=O)N[C@@H]4CCCc5ccccc54)N(C(=O)[C@@H](NC(=O)[C@H](C)N(C)C)C4CCCCC4)C3)c2)C(C)(C)C)cc1 [PROTAC 10b]
2: CN[C@@H](C)C(=O)N[C@H](C(=O)N1C[C@@H](Oc2cccc(OCCCCOCCCC(=O)N[C@H](C(=O)N3C[C@H](O)C[C@H]3C(=O)NCc3ccc(-c4scnc4C)cc3)C(C)(C)C)c2)C[C@H]1C(=O)N[C@@H]1CCCc2ccccc21)C1CCCCC1
Ask | Between the entries labeled 1 and 2 , whose measured remaining activity at 0.1 µM is lower? API: response body contains the label of the selected item.
Reply | 2

----------
Biological target: cIAP2 (Homo sapiens)
Sequence (Q13489 whole entry): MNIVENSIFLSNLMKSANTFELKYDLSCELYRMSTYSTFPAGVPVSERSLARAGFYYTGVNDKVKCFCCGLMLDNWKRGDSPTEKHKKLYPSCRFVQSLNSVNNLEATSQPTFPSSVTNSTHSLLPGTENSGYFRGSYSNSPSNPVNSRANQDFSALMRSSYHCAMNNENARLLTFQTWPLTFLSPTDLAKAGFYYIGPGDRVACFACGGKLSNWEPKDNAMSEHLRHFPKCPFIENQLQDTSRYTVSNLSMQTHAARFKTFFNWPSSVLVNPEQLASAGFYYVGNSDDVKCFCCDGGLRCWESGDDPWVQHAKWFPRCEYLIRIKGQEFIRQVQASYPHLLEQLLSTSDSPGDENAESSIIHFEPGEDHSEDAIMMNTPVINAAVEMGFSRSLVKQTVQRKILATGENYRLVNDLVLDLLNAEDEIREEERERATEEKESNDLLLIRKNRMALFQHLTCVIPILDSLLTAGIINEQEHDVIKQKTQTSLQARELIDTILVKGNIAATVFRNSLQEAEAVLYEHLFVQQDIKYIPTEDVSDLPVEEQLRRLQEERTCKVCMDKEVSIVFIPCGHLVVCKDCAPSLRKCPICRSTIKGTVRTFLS
Test: Immunoblotting (western blot) quantification of cIAP2 levels in MM.1S cells
Settings: MM1.S, 16 h, read-out: %remaining protein cIAP2, MM.1S cells, 16 h treatment at 0.1 μM, normalized to loading control and DMSO
Readout name: remaining activity at 0.1 µM (%)

a: CN[C@@H](C)C(=O)N[C@H](C(=O)N1C[C@@H](Oc2cccc(OCCCCOCCCCNc3cccc4c3C(=O)N(C3CCC(=O)NC3=O)C4=O)c2)C[C@H]1C(=O)N[C@@H]1CCCc2ccccc21)C1CCCCC1 (some centres unmarked)
b: CN[C@@H](C)C(=O)N[C@H](C(=O)N1C[C@@H](Oc2cccc(OCCCCCCOCCCCCCOCCCCCC(=O)N[C@H](C(=O)N3C[C@H](O)C[C@H]3C(=O)NCc3ccc(-c4scnc4C)cc3)C(C)(C)C)c2)C[C@H]1C(=O)N[C@@H]1CCCc2ccccc21)C1CCCCC1
Ask | Just tell me: smaller remaining activity at 0.1 µM value, a or b ? Choose, then provide that item's label.
Reply | a

----------
Target: cIAP1 (Homo sapiens, UniProt Q13490)
Sequence (Q13490 whole entry): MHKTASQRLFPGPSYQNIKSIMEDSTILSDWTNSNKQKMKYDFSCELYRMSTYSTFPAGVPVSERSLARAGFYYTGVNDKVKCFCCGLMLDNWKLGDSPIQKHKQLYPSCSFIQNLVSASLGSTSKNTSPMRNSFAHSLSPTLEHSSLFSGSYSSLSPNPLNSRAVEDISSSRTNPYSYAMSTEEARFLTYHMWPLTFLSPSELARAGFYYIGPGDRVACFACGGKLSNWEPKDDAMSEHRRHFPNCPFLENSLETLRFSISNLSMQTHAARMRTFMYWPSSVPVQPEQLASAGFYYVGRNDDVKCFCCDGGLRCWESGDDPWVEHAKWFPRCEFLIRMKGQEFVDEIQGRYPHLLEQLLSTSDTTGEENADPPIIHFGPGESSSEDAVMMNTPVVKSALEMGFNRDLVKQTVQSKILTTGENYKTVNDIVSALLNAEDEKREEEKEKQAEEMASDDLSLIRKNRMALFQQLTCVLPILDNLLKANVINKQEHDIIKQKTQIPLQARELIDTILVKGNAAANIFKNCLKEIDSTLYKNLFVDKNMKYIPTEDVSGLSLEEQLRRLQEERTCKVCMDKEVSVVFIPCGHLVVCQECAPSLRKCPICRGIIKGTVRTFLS
Assay: Immunoblotting (western blot) quantification of cIAP1 levels in MM.1S cells
Settings: MM1.S, 16 h, read-out: %remaining protein cIAP1, MM.1S cells, 16 h treatment at 0.1 μM, normalized to loading control and DMSO
Readout name: remaining activity at 0.1 µM (%)

1. CN[C@@H](C)C(=O)N[C@H](C(=O)N1C[C@@H](Oc2cccc(OCCCCCCOCCCCCCOCCCCCC(=O)N[C@H](C(=O)N3C[C@H](O)C[C@H]3C(=O)NCc3ccc(-c4scnc4C)cc3)C(C)(C)C)c2)C[C@H]1C(=O)N[C@@H]1CCCc2ccccc21)C1CCCCC1 [PROTAC 8] ... 3

I: CN[C@@H](C)C(=O)N[C@H](C(=O)N1C[C@@H](Oc2cccc(OCCCCCCOCCCCCCOCCCCCCNc3cccc4c3C(=O)N(C3CCC(=O)NC3=O)C4=O)c2)C[C@H]1C(=O)N[C@@H]1CCCc2ccccc21)C1CCCCC1 (stereo partly drawn) [PROTAC 27]
II: CN[C@@H](C)C(=O)N[C@H](C(=O)N1C[C@@H](Oc2cccc(OCCOCCOCCNc3cccc4c3C(=O)N(C3CCC(=O)NC3=O)C4=O)c2)C[C@H]1C(=O)N[C@@H]1CCCc2ccccc21)C1CCCCC1 (stereo partly drawn) [PROTAC 23]
III: CN[C@@H](C)C(=O)N[C@H](C(=O)N1C[C@@H](Oc2cccc(OCCOCCOCCOCC(=O)N[C@H](C(=O)N3C[C@H](O)C[C@H]3C(=O)NCc3ccc(-c4scnc4C)cc3)C(C)(C)C)c2)C[C@H]1C(=O)N[C@@H]1CCCc2ccccc21)C1CCCCC1 [PROTAC 5]
IV: CC(=O)N(C)[C@@H](C)C(=O)N[C@H](C(=O)N1C[C@@H](Oc2cccc(OCCCCC(=O)N[C@H](C(=O)N3C[C@H](O)C[C@H]3C(=O)N[C@@H](C)c3ccc(-c4scnc4C)cc3)C(C)(C)C)c2)C[C@H]1C(=O)N[C@@H]1CCCc2ccccc21)C1CCCCC1 [PROTAC 10c]
Ask | # sort list by recorded remaining activity at 0.1 µM, greatest to least List each label, following the requested order.
Reply | IV, I, II, III
(IV: 94%, I: 27%, II: 4%, III: 2%)

1: CN[C@@H](C)C(=O)N[C@H](C(=O)N1C[C@@H](Oc2cccc(OCCCCCNc3cccc4c3C(=O)N(C3CCC(=O)NC3=O)C4=O)c2)C[C@H]1C(=O)N[C@@H]1CCCc2ccccc21)C1CCCCC1 (stereo partly drawn) [PROTAC 20]
2: CN[C@@H](C)C(=O)N[C@H](C(=O)N1C[C@@H](Oc2cccc(OCCCCOCCCC(=O)N[C@H](C(=O)N3C[C@H](O)C[C@H]3C(=O)NCc3ccc(-c4scnc4C)cc3)C(C)(C)C)c2)C[C@H]1C(=O)N[C@@H]1CCCc2ccccc21)C1CCCCC1 [PROTAC 3]
Ask | Compare the recorded remaining activity at 0.1 µM of 1 and 2 ; state which is larger. Please indicate the selected item by its label.
Reply | 1
